Where do these numbers come from? They come from patent EP4725957A1.

Test system: Acinetobacter baumannii ABA19-1
Type: cell-based
Conditions: ABA19-1
Bridge positions count the residues as written; N and C are the ends. Square brackets hold non-standard residues; d marks the D form. Peptide text beside a SMILES is read from it. * marks the point of attachment. Dab(CH2SO3H) = N[C@@H](CCNCS(=O)(=O)O)C(=O)O; Heptanoyl(6-Me) = CC(C)CCCCC(=O)*; Nonanoyl = CCCCCCCCC(=O)*; X1 = CC[C@H](C)CCCCC(=O)*; dDab = NCC[C@@H](N)C(=O)O; Heptanoyl = CCCCCCC(=O)*; Octanoyl = CCCCCCCC(=O)*; Orn = NCCC[C@H](N)C(=O)O; dDap = NC[C@@H](N)C(=O)O; Dab = NCC[C@H](N)C(=O)O; Dap = NC[C@H](N)C(=O)O
Please respond with reported MIC for every item in the list.
Report the figure in mg/L without appending any unit label.

Prompt: For the compound CCCCCCCC(=O)N[C@@H](CN)C(=O)N[C@H](C(=O)N[C@H](CCN)C(=O)N[C@H]1CCNC(=O)[C@H]([C@@H](C)O)NC(=O)[C@H](CCN)NC(=O)[C@H](CCN)NC(=O)[C@H](CC(C)C)NC(=O)[C@@H](Cc2ccccc2)NC(=O)[C@H](CCN)NC1=O)[C@@H](C)O [Compound 93] (Octanoyl-[Dap]T[dDab][Dab][Dab][dF]L[Dab][Dab]T; lactam 4-C) , what MIC is on record?
Response: 0.03

Prompt: For the compound CCCCCCCC(=O)N[C@@H](CCN)C(=O)N[C@H](C(=O)N[C@H](CO)C(=O)N[C@H]1CCNC(=O)[C@H]([C@@H](C)O)NC(=O)[C@H](CCN)NC(=O)[C@H](CCCN)NC(=O)[C@H]([C@@H](C)O)NC(=O)[C@@H](Cc2ccccc2)NC(=O)[C@H](CCN)NC1=O)[C@@H](C)O [Compound 78] (Octanoyl-[Dab]T[dS][Dab][Dab][dF]T[Orn][Dab]T; lactam 4-C) , what MIC is on record?
Response: 0.06

Prompt: For the compound CCCCCCC(=O)N[C@@H](CCCN)C(=O)N[C@H](C(=O)N[C@H](CO)C(=O)N[C@H]1CCNC(=O)[C@H]([C@@H](C)O)NC(=O)[C@H](CCN)NC(=O)[C@H](CCN)NC(=O)[C@H]([C@@H](C)O)NC(=O)[C@@H](Cc2ccccc2)NC(=O)[C@H](CCN)NC1=O)[C@@H](C)O [Compound 59] (Heptanoyl-[Orn]T[dS][Dab][Dab][dF]T[Dab][Dab]T; lactam 4-C) , what MIC is on record?
Response: 0.25

Prompt: For the compound CCCCCCC(=O)N[C@@H](CCN)C(=O)N[C@H](C(=O)N[C@H](CO)C(=O)N[C@H]1CCNC(=O)[C@H]([C@@H](C)O)NC(=O)[C@H](CCN)NC(=O)[C@H](CN)NC(=O)[C@H]([C@@H](C)O)NC(=O)[C@@H](Cc2ccccc2)NC(=O)[C@H](CCN)NC1=O)[C@@H](C)O [Compound 74] (Heptanoyl-[Dab]T[dS][Dab][Dab][dF]T[Dap][Dab]T; lactam 4-C) , what MIC is on record?
Response: 0.06

Prompt: For the compound CC[C@H](C)CCCCC(=O)N[C@@H](CCN)C(=O)N[C@H](C(=O)N[C@@H](CCCN)C(=O)N[C@H]1CCNC(=O)[C@H]([C@@H](C)O)NC(=O)[C@H](CCN)NC(=O)[C@H](CCN)NC(=O)[C@H](CC(C)C)NC(=O)[C@@H](Cc2ccccc2)NC(=O)[C@H](CCN)NC1=O)[C@@H](C)O [Compound 46] (X1-[Dab]T[Orn][Dab][Dab][dF]L[Dab][Dab]T; lactam 4-C) , what MIC is on record?
Response: 0.125

Prompt: For the compound CCCCCCC(=O)N[C@@H](CCN)C(=O)N[C@H](C(=O)N[C@H](CN)C(=O)N[C@H]1CCNC(=O)[C@H]([C@@H](C)O)NC(=O)[C@H](CCN)NC(=O)[C@H](CCN)NC(=O)[C@H]([C@@H](C)O)NC(=O)[C@@H](Cc2ccccc2)NC(=O)[C@H](CCN)NC1=O)[C@@H](C)O [Compound 4] (Heptanoyl-[Dab]T[dDap][Dab][Dab][dF]T[Dab][Dab]T; lactam 4-C) , what MIC is on record?
Response: 0.03

Prompt: For the compound CC(C)CCCCC(=O)N[C@@H](CCNCS(=O)(=O)O)C(=O)N[C@H](C(=O)N[C@H](CO)C(=O)N[C@H]1CCNC(=O)[C@H]([C@@H](C)O)NC(=O)[C@H](CCN)NC(=O)[C@H](CCN)NC(=O)[C@H]([C@@H](C)O)NC(=O)[C@@H](Cc2ccccc2)NC(=O)[C@H](CCN)NC1=O)[C@@H](C)O [Compound 108] ({Heptanoyl(6-Me)}-[Dab(CH2SO3H)]T[dS][Dab][Dab][dF]T[Dab][Dab]T; lactam 4-C) , what MIC is on record?
Response: 0.25

Prompt: For the compound CCCCCCCCC(=O)N[C@@H](CN)C(=O)N[C@H](C(=O)N[C@H](CCN)C(=O)N[C@H]1CCNC(=O)[C@H]([C@@H](C)O)NC(=O)[C@H](CCN)NC(=O)[C@H](CCN)NC(=O)[C@H](CC(C)C)NC(=O)[C@@H](Cc2ccccc2)NC(=O)[C@H](CCN)NC1=O)[C@@H](C)O [Compound 95] (Nonanoyl-[Dap]T[dDab][Dab][Dab][dF]L[Dab][Dab]T; lactam 4-C) , what MIC is on record?
Response: 0.06

---

System: Escherichia coli ATCC BAA-2523
Format: cell-based
Conditions: ATCC BAA-2523
Bridge positions count the residues as written; N and C are the ends. Square brackets hold non-standard residues; d marks the D form. Peptide text beside a SMILES is read from it. * marks the point of attachment. Heptanoyl(6-Me) = CC(C)CCCCC(=O)*; Sulfomethyl = O=S(=O)(O)C*; Dab = NCC[C@H](N)C(=O)O; Dap = NC[C@H](N)C(=O)O
assay endpoint: MIC (µg/mL)
Report the figure in µg/mL without appending any unit label.

Prompt: For the compound CC(C)CCCCC(=O)N[C@@H](CCN)C(=O)N[C@H](C(=O)N[C@@H](CN)C(=O)N[C@H]1CCNC(=O)[C@H]([C@@H](C)OCS(=O)(=O)O)NC(=O)[C@H](CCN)NC(=O)[C@H](CCN)NC(=O)[C@H]([C@@H](C)O)NC(=O)[C@@H](Cc2ccccc2)NC(=O)[C@H](CCN)NC1=O)[C@@H](C)O [Compound 115] ({Heptanoyl(6-Me)}-[Dab]T[Dap][Dab][Dab][dF]T[Dab][Dab]T(Sulfomethyl); lactam 4-C) , what MIC is on record?
Response: 0.03

---

System: Acinetobacter baumannii NCTC 13304 (OXA-27)
Assay type: cell-based
Conditions: NCTC 13304
Bridge positions count the residues as written; N and C are the ends. Square brackets hold non-standard residues; d marks the D form. Peptide text beside a SMILES is read from it. * marks the point of attachment. Dab(CH2SO3H) = N[C@@H](CCNCS(=O)(=O)O)C(=O)O; Heptanoyl(6-Me) = CC(C)CCCCC(=O)*; dDab = NCC[C@@H](N)C(=O)O; Dab = NCC[C@H](N)C(=O)O; Dap = NC[C@H](N)C(=O)O
assay endpoint: MIC (µg/mL)
Report the figure in µg/mL without appending any unit label.

Prompt: For the compound CC(C)CCCCC(=O)N[C@@H](CN)C(=O)N[C@H](C(=O)N[C@H](CCN)C(=O)N[C@H]1CCNC(=O)[C@H]([C@@H](C)O)NC(=O)[C@H](CCN)NC(=O)[C@H](CCN)NC(=O)[C@H](CC(C)C)NC(=O)[C@@H](CC(C)C)NC(=O)[C@H](CCN)NC1=O)[C@@H](C)O [Compound 97] ({Heptanoyl(6-Me)}-[Dap]T[dDab][Dab][Dab][dL]L[Dab][Dab]T; lactam 4-C) , what MIC is on record?
Response: 0.03

Prompt: For the compound CC(C)CCCCC(=O)N[C@@H](CCN)C(=O)N[C@H](C(=O)N[C@@H](CN)C(=O)N[C@H]1CCNC(=O)[C@H]([C@@H](C)O)NC(=O)[C@H](CCN)NC(=O)[C@H](CCN)NC(=O)[C@H]([C@@H](C)O)NC(=O)[C@@H](Cc2ccccc2)NC(=O)[C@H](CCNCS(=O)(=O)O)NC1=O)[C@@H](C)O [Compound 118] ({Heptanoyl(6-Me)}-[Dab]T[Dap][Dab][Dab(CH2SO3H)][dF]T[Dab][Dab]T; lactam 4-C) , what MIC is on record?
Response: 0.06

---

Test: Nephrotoxicity assay: in vitro cytotoxicity of HK-2 cells by CCK-8 assay
Assay type: cell-based
Details: human, HK-2 cells (human renal), 72 h incubation with drug-containing medium
Bridge positions count the residues as written; N and C are the ends. Square brackets hold non-standard residues; d marks the D form. Peptide text beside a SMILES is read from it. * marks the point of attachment. Heptanoyl(6-Me) = CC(C)CCCCC(=O)*; Nonanoyl = CCCCCCCCC(=O)*; X1 = CC[C@H](C)CCCCC(=O)*; dDab = NCC[C@@H](N)C(=O)O; Octanoyl = CCCCCCCC(=O)*; Orn = NCCC[C@H](N)C(=O)O; Dab = NCC[C@H](N)C(=O)O; Dap = NC[C@H](N)C(=O)O
assay endpoint: IC50 at 72 h

Prompt: For the compound CCCCCCCCC(=O)N[C@@H](CN)C(=O)N[C@H](C(=O)N[C@H](CCN)C(=O)N[C@H]1CCNC(=O)[C@H]([C@@H](C)O)NC(=O)[C@H](CCN)NC(=O)[C@H](CCN)NC(=O)[C@H](CC(C)C)NC(=O)[C@@H](Cc2ccccc2)NC(=O)[C@H](CCN)NC1=O)[C@@H](C)O [Compound 95] (Nonanoyl-[Dap]T[dDab][Dab][Dab][dF]L[Dab][Dab]T; lactam 4-C) , what IC50 at 72 h is on record?
Response: 113 µg/mL

Prompt: For the compound CC[C@H](C)CCCCC(=O)N[C@@H](CCN)C(=O)N[C@H](C(=O)N[C@H](CCN)C(=O)N[C@H]1CCNC(=O)[C@H]([C@@H](C)O)NC(=O)[C@H](CCN)NC(=O)[C@H](CCN)NC(=O)[C@H]([C@@H](C)O)NC(=O)[C@@H](Cc2ccccc2)NC(=O)[C@H](CCN)NC1=O)[C@@H](C)O [Compound 11] (X1-[Dab]T[dDab][Dab][Dab][dF]T[Dab][Dab]T; lactam 4-C) , what IC50 at 72 h is on record?
Response: 371 µg/mL

Prompt: For the compound CC[C@H](C)CCCCC(=O)N[C@@H](CCN)C(=O)N[C@H](C(=O)N[C@H](CO)C(=O)N[C@H]1CCNC(=O)[C@H]([C@@H](C)O)NC(=O)[C@H](CCN)NC(=O)[C@H](CCN)NC(=O)[C@H]([C@@H](C)O)NC(=O)[C@@H](Cc2ccccc2)NC(=O)[C@H](CCCN)NC1=O)[C@@H](C)O [Compound 66] (X1-[Dab]T[dS][Dab][Orn][dF]T[Dab][Dab]T; lactam 4-C) , what IC50 at 72 h is on record?
Response: > 500 µg/mL

Prompt: For the compound CC[C@H](C)CCCCC(=O)N[C@@H](CCN)C(=O)N[C@H](C(=O)N[C@H](CO)C(=O)N[C@H]1CCNC(=O)[C@H]([C@@H](C)O)NC(=O)[C@H](CCCN)NC(=O)[C@H](CCN)NC(=O)[C@H]([C@@H](C)O)NC(=O)[C@@H](Cc2ccccc2)NC(=O)[C@H](CCN)NC1=O)[C@@H](C)O [Compound 86] (X1-[Dab]T[dS][Dab][Dab][dF]T[Dab][Orn]T; lactam 4-C) , what IC50 at 72 h is on record?
Response: > 500 µg/mL

Prompt: For the compound CC(C)CCCCC(=O)N[C@@H](CCN)C(=O)N[C@H](C(=O)N[C@H](CO)C(=O)N[C@H]1CCNC(=O)[C@H]([C@@H](C)O)NC(=O)[C@H](CCN)NC(=O)[C@H](CCN)NC(=O)[C@H]([C@@H](C)O)NC(=O)[C@@H](Cc2ccccc2)NC(=O)[C@H](CCCN)NC1=O)[C@@H](C)O [Compound 67] ({Heptanoyl(6-Me)}-[Dab]T[dS][Dab][Orn][dF]T[Dab][Dab]T; lactam 4-C) , what IC50 at 72 h is on record?
Response: > 500 µg/mL

Prompt: For the compound CCCCCCCC(=O)N[C@@H](CCN)C(=O)N[C@H](C(=O)N[C@@H](CCCN)C(=O)N[C@H]1CCNC(=O)[C@H]([C@@H](C)O)NC(=O)[C@H](CCN)NC(=O)[C@H](CCN)NC(=O)[C@H]([C@@H](C)O)NC(=O)[C@@H](Cc2ccccc2)NC(=O)[C@H](CCN)NC1=O)[C@@H](C)O [Compound 28] (Octanoyl-[Dab]T[Orn][Dab][Dab][dF]T[Dab][Dab]T; lactam 4-C) , what IC50 at 72 h is on record?
Response: > 500 µg/mL

Prompt: For the compound CC(C)CCCCC(=O)N[C@@H](CCN)C(=O)N[C@H](C(=O)N[C@H](CO)C(=O)N[C@H]1CCNC(=O)[C@H]([C@@H](C)O)NC(=O)[C@H](CCN)NC(=O)[C@H](CCCN)NC(=O)[C@H]([C@@H](C)O)NC(=O)[C@@H](Cc2ccccc2)NC(=O)[C@H](CCN)NC1=O)[C@@H](C)O [Compound 77] ({Heptanoyl(6-Me)}-[Dab]T[dS][Dab][Dab][dF]T[Orn][Dab]T; lactam 4-C) , what IC50 at 72 h is on record?
Response: > 500 µg/mL
